Test system: MiaPaCa
test.name: Cell proliferation assay (Alamar Blue)
Type: cell-based
measurement.setup: Homo sapiens, MIA PaCa-2, 96 h, MiaPaCa cells, four days
endpoint.label: IC50 (µM)

Guide cases for IC50, answers given:
molecule: O=C(O)c1ccc2c(c1)nc(Nc1ccccc1)c1nc(NCCN3CCOCC3)ncc12 [drawing 325]
IC50, µM: 1.69
//
molecule: O=C(O)c1ccc2c(c1)nc(Nc1ccc(Cl)c(C(F)(F)F)c1)c1ccncc12 [drawing 333]
IC50, µM: 9.09
//
molecule: COC(CNc1ncc2c(n1)c(Nc1ccc(F)c(Cl)c1)nc1cc(C(=O)O)ccc12)OC [drawing 363]
IC50, µM: 3.41

(1) O=C(O)c1ccc2c(c1)nc(Nc1ccccc1)c1nc(NCCCN3CCOCC3)ncc12 [drawing 326]
(2) Cc1cccc(Nc2nc3cc(C(=O)O)ccc3c3cnccc23)c1 [drawing 356]
(3) O=C(O)c1ccc2c(c1)nc(Nc1cccc(C(F)(F)F)c1)c1nc(NC3CC3)ncc12 [drawing 341]
(4) Cc1ncc2c(n1)c(Nc1cccc(Cl)c1)nc1cc(C(=O)O)ccc12 [drawing 351]
(5) COCCNc1ncc2c(n1)c(Nc1ccccc1)nc1cc(C(=O)O)ccc12 [drawing 320]
With regard to IC50, arrange the entries in ascending order, please. Output the labels ranked as instructed. 3, 1, 5, 4, 2

(a) CNc1ncc2c(n1)c(Nc1ccccc1)nc1cc(C(=O)O)ccc12 [drawing 307]
(b) O=C(O)c1ccc2c(c1)nc(Nc1ccccc1)c1nc(NCCO)ncc12 [drawing 321]
Compare reported IC50 values for a and b . Which is lower? // respond with label for picked entry a
(a: 1.09 µM, b: 16.2 µM)

----------
Test system: MCF-7
test.name: Cell proliferation assay (Alamar Blue)
Assay type: cell-based
measurement.setup: Homo sapiens, MCF7, 96 h, MCF-7 cells, four days
endpoint.label: IC50 (µM)

molecule: O=C(O)c1ccc2c(c1)nc(Nc1cc(F)cc(F)c1)c1ncncc12 [drawing 377]
measured.on: MCF-7
units: µM
IC50: 2.02

(A) O=C(O)c1ccc2c(c1)nc(Nc1cccc(F)c1)c1ncncc12 [drawing 378]
(B) CNc1ncc2c(n1)c(Nc1ccccc1)nc1cc(C(=O)O)ccc12 [drawing 383]
Compare reported IC50 values for A and B . Which is lower? // respond with label for picked entry A

(a) Fc1cc(Nc2nc3cc(-c4nnn[nH]4)ccc3c3cnccc23)ccc1Cl [drawing 382]
(b) C#Cc1cccc(Nc2nc3cc(C(=O)O)ccc3c3cnccc23)c1 [drawing 385]
Just curious, which one has the larger IC50 reading, a or b ? // respond with label for picked entry a

----------
System: BxPC3
test.name: Cell proliferation assay (Alamar Blue)
Assay type: cell-based
measurement.setup: Homo sapiens, BXPC-3, 96 h, BxPC3 cells, four days
Experimental: A representative cell-proliferation assay protocol using Alamar Blue dye (stored at 4°C, use 20ul per well) is described hereafter. 96-well plate setup and compound treatment • a. Split and trypsinize cells. • b. Count cells using hemocytometer. • c. Plate 4,000-5,000 cells per well in 100 µl of medium and seed into a 96-well plate according to the following plate layout. […] Record fluorescence at an excitation wavelength of 544nm and emission wavelength of 590nm using a microplate reader. […]
endpoint.label: IC50 (µM)

molecule: O=C(O)c1ccc2c(c1)nc(Nc1ccccc1)c1nc(NCCO)ncc12 [drawing 464]
test.value: 23.5

molecule: O=C(O)c1ccc2c(c1)nc(Nc1ccc(F)c(Cl)c1)c1nc(NCc3ccccn3)ncc12 [drawing 505]
test.value: 11.1

molecule: C#Cc1cccc(Nc2nc3cc(C(=O)OC)ccc3c3cnc(NOC)nc23)c1 [drawing 495]
test.value: 40

molecule: CC(C)Nc1ncc2c(n1)c(Nc1cccc(Cl)c1)nc1cc(C(=O)O)ccc12 [drawing 483]
test.value: 36.9

molecule: Cc1ncc2c(n1)c(Nc1cccc(Cl)c1)nc1cc(C(=O)O)ccc12 [drawing 494]
test.value: 8.88

(P) CCNc1ncc2c(n1)c(Nc1cccc(Cl)c1)nc1cc(C(=O)O)ccc12 [drawing 485]
(Q) CC(C)OC(=O)Nc1ccc2c(c1)nc(Nc1cccc(C(F)(F)F)c1)c1nc(NC3CC3)ncc12 [drawing 513]
Just curious, which one has the larger IC50 reading, P or Q ? // respond with label for picked entry P

(A) CCCNc1ncc2c(n1)c(Nc1ccccc1)nc1cc(C(=O)O)ccc12 [drawing 462]
(B) CNc1ncc2c(n1)c(Nc1cccc(Cl)c1)nc1cc(C(=O)O)ccc12 [drawing 480]
Just curious, which one has the larger IC50 reading, A or B ? // respond with label for picked entry A
(A: 5.83 µM, B: 2.56 µM)
